# Test system: Anabaena flos-aquae
# experiment.summary: Test tube culture inhibition of Anabaena flos-aquae, algal units/ml
# Assay type: cell-based
# test.settings: 5 days, 1.0 PPM

{"compound": "CCCCCCCCCCCC(=O)O [Dodecanoic Acid, dodecanoic acid]", "Algal units/ml (units/ml)": 2174}
{"compound": "CCCCCC[C@@H](O)C/C=C\\CCCCCCCC(=O)O [Ricinoleic Acid, ricinoleic acid]", "Algal units/ml (units/ml)": 1087}
{"compound": "CCCCCCCCC(O)C(O)CCCCCCCC(=O)O (stereo not shown) [9,10-Dihydroxystearic Acid, 9,10-dihydroxystearic acid]", "Algal units/ml (units/ml)": 4348}
{"compound": "CCCCC/C=C\\C/C=C\\CCCCCCCC(=O)O [Linoleic Acid, linoleic acid]", "Algal units/ml (units/ml)": 3261}

----------
Consider the following molecules and their measured Algal units/ml readings.
# System: Chlamydomonas sp.
# experiment.summary: Test tube culture inhibition of Chlamydomonas sp., algal units/ml
# Format: cell-based
# test.settings: 12 days, 1.0 PPM

{"molecule": "CCCCCCCCCCCC(=O)O [Dodecanoic Acid, dodecanoic acid]", "target.under.test": "Chlamydomonas sp.", "uom": "units/ml", "Algal units/ml": 48696}
{"molecule": "CCCCCCCCC(O)C(O)CCCCCCCC(=O)O (stereo not shown) [9,10-Dihydroxystearic Acid, 9,10-dihydroxystearic acid]", "target.under.test": "Chlamydomonas sp.", "uom": "units/ml", "Algal units/ml": 46739}
{"molecule": "CCCCCC[C@@H](O)C/C=C\\CCCCCCCC(=O)O [Ricinoleic Acid, ricinoleic acid]", "target.under.test": "Chlamydomonas sp.", "uom": "units/ml", "Algal units/ml": 63043}
{"molecule": "CCCCC/C=C\\C/C=C\\CCCCCCCC(=O)O [Linoleic Acid, linoleic acid]", "target.under.test": "Chlamydomonas sp.", "uom": "units/ml", "Algal units/ml": 52174}

----------
Consider the following compounds and their measured Algal units/ml readings.
# Test system: Anabaena flos-aquae
# experiment.summary: Test tube culture inhibition of Anabaena flos-aquae, algal units/ml
# Format: cell-based
# test.settings: 5 days, 0.5 PPM

{"compound": "CCCCCCCCCCCC(=O)O", "Algal units/ml (units/ml)": 1087}
{"compound": "CCCCCCCCC(O)C(O)CCCCCCCC(=O)O (stereo not shown) [9,10-Dihydroxystearic Acid, 9,10-dihydroxystearic acid]", "Algal units/ml (units/ml)": 4348}
{"compound": "CCCCC/C=C\\C/C=C\\CCCCCCCC(=O)O", "Algal units/ml (units/ml)": 1087}
{"compound": "CCCCCC[C@@H](O)C/C=C\\CCCCCCCC(=O)O", "Algal units/ml (units/ml)": 435}

----------
Consider the following compounds and their measured Algal units/ml readings.
# Test system: Anabaena flos-aquae
# experiment.summary: Test tube culture inhibition of Anabaena flos-aquae, algal units/ml
# Assay type: cell-based
# test.settings: 12 days, 5.0 PPM

{"compound": "CCCCC/C=C\\C/C=C\\CCCCCCCC(=O)O", "Algal units/ml [units/ml]": 4130}
{"compound": "CCCCCCCCCCCC(=O)O", "Algal units/ml [units/ml]": 6739}
{"compound": "CCCCCCCCC(O)C(O)CCCCCCCC(=O)O (stereo not shown) [9,10-Dihydroxystearic Acid, 9,10-dihydroxystearic acid]", "Algal units/ml [units/ml]": 9130}
{"compound": "CCCCCC[C@@H](O)C/C=C\\CCCCCCCC(=O)O", "Algal units/ml [units/ml]": 4783}

----------
# Tested on: Chlamydomonas sp.
# experiment.summary: Test tube culture inhibition of Chlamydomonas sp., algal units/ml
# Type: cell-based
# test.settings: 5 days, 5.0 PPM

{"compound": "CCCCC/C=C\\C/C=C\\CCCCCCCC(=O)O [Linoleic Acid, linoleic acid]", "uom": "units/ml", "Algal units/ml": 12391}
{"compound": "CCCCCCCCCCCC(=O)O [Dodecanoic Acid, dodecanoic acid]", "uom": "units/ml", "Algal units/ml": 12609}
{"compound": "CCCCCC[C@@H](O)C/C=C\\CCCCCCCC(=O)O [Ricinoleic Acid, ricinoleic acid]", "uom": "units/ml", "Algal units/ml": 32609}
{"compound": "CCCCCCCCC(O)C(O)CCCCCCCC(=O)O (stereo not shown) [9,10-Dihydroxystearic Acid, 9,10-dihydroxystearic acid]", "uom": "units/ml", "Algal units/ml": 11304}

----------
# Test system: Anabaena flos-aquae
# experiment.summary: Test tube culture inhibition of Anabaena flos-aquae, algal units/ml
# Assay type: cell-based
# test.settings: 12 days, 10.0 PPM
Consider the following compounds and their measured Algal units/ml readings.

{"compound": "CCCCCCCCC(O)C(O)CCCCCCCC(=O)O (stereo not shown) [9,10-Dihydroxystearic Acid, 9,10-dihydroxystearic acid]", "uom": "units/ml", "Algal units/ml": 3261}
{"compound": "CCCCCC[C@@H](O)C/C=C\\CCCCCCCC(=O)O [Ricinoleic Acid, ricinoleic acid]", "uom": "units/ml", "Algal units/ml": 3043}
{"compound": "CCCCCCCCCCCC(=O)O [Dodecanoic Acid, dodecanoic acid]", "uom": "units/ml", "Algal units/ml": 6522}
{"compound": "CCCCC/C=C\\C/C=C\\CCCCCCCC(=O)O [Linoleic Acid, linoleic acid]", "uom": "units/ml", "Algal units/ml": 3969}

Cited source: patent US4398937A
